# Target desc: androgen receptor (hAR) (Homo sapiens (Human), UniProt P10275)
# Sequence (P10275 whole entry): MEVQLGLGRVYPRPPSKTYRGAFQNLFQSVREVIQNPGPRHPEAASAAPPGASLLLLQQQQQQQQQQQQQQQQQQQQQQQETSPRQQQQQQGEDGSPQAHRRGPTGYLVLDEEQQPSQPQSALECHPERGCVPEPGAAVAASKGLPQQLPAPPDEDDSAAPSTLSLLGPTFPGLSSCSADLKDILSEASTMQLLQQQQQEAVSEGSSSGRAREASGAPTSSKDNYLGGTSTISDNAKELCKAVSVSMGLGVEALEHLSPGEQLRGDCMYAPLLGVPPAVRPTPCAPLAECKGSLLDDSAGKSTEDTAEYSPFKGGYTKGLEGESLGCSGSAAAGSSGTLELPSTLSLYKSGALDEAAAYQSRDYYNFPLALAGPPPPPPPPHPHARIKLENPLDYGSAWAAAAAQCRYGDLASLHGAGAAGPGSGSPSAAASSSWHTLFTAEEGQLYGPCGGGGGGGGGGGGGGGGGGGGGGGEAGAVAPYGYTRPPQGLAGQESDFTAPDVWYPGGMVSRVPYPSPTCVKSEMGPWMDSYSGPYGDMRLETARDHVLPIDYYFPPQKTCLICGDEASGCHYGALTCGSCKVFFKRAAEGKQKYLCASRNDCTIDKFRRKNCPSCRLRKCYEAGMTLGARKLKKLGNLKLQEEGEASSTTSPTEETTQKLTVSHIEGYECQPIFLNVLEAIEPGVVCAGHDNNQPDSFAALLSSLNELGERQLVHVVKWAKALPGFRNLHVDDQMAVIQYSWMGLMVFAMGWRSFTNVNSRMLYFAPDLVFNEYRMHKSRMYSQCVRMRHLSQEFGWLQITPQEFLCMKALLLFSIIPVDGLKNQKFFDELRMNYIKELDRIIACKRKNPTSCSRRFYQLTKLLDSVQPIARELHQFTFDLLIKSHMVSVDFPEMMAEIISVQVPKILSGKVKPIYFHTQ
# Procedure details: Test of transcriptional activity (hAR / ARE-Luc dual-luciferase assay in CHO cells)
# Assay type: cell-based
# Stated conditions: EC50 [nM] (mean ± SE), CHO cells with hAR and ARE-Luc, 24 hours; 10 nM DHT = 100%
# note: exactly 100 nM is not below, so it is false (0); use true (1) for EC50 strictly under it

N#Cc1ccc(N2C[C@@H](C(=O)Nc3cccnc3)O[C@@H]2C(F)(F)F)cc1C(F)(F)F	true (1)

Is EC50 of `N#Cc1ccc(OC[C@@H]2CN(c3ccc(C#N)c(C(F)(F)F)c3)[C@@H](C(F)(F)F)O2)cn1` strictly below 100 nM? true (1)

Is EC50 of `Cc1c(N2C[C@@H](COc3ccc(/C=N/O)cc3)O[C@@H]2C(F)(F)F)ccc(C#N)c1Cl` strictly below 100 nM? true (1)

Is EC50 of `CC(C)OC(=O)Nc1ccc(OC[C@@H]2CN(c3ccc(C#N)c(C(F)(F)F)c3)[C@@H](C(F)(F)F)O2)cc1` strictly below 100 nM? false (0)

Is EC50 of `N#Cc1ccc(N2C[C@@H](COc3ccc(N4CCOC4=O)cc3)O[C@@H]2C(F)(F)F)cc1C(F)(F)F` strictly below 100 nM? false (0)

Is EC50 of `N#CCC(=O)Nc1ccc(NC(=O)[C@@H]2CN(c3ccc(C#N)c(C(F)(F)F)c3)[C@@H](C(F)(F)F)O2)cc1` strictly below 100 nM? false (0)
